We begin with IC50 values for UniProt:O15054, as collected from the published literature.
Answers are plain numbers, in µM.

Below, each entry is followed by its recorded IC50 result.
O=C(O)CCNc1nc(N2CCN(c3ccc(F)cc3)CC2)cc(-n2cc3ccccc3n2)n1    5.8
O=C(O)CCC(=O)NO    1.1
O=C(O)CCNc1nc(-c2nccs2)cc(N2CCc3ccccc3CC2)n1    0.2
O=C(O)CCNc1nc(N2CCc3ccccc3CC2)cc(-n2cc3ccccc3n2)n1    2.2
O=C(O)CCNc1nc(N2CCC(c3ccccc3)CC2)cc(-n2ccnn2)n1    2.1

# batch: return IC50 for each of the 6 molecules below
1. Cn1cc(Nc2cnccc2C(=O)O)c2cccnc21
2. COC1=C2C[C@@H](C)C[C@H](OC)[C@H](O)[C@@H](C)/C=C(\C)[C@H](OC(N)=O)[C@@H](OC)/C=C\C=C(/C)C(=O)NC(=CC1=O)C2=O
3. O=C(O)CCNc1nc(N2CCC(c3ccccc3)CC2)cc(-n2cccn2)n1
4. N[C@H]1C[C@@H]1c1ccc(NC(=O)CCCCNC(=O)c2ccc(O)c3ncccc23)cc1 (relative stereo)
5. O=C(O)CCNc1nc(N2CCC(c3ccccc3)CC2)cc(-n2nccn2)n1
6. O=C(O)c1ccc(-n2nc(-c3ccccc3O)nc2-c2ccccc2O)cc1

Result:
1: 19; 2: 0.4; 3: 0.75; 4: 14; 5: 1.2; 6: 3.95

Please look at the items below and tell me IC50 for each one, in order.
1. O=C(O)CCNc1nc(N2CCc3ccccc3C2)cc(-n2nccn2)n1
2. O=C(O)CCNc1nc(N2CCN(c3ccccn3)CC2)cc(-n2cccn2)n1
3. O=C(O)CCNc1nc(N2CCN(c3ccccn3)CC2)cc(-n2nccn2)n1
4. COC(=O)c1ccnc(-c2cc(C(=O)Nc3ccc([C@@H]4C[C@H]4N)cc3)ccn2)c1.Cl (relative stereo)

Result:
1. 1.5
2. 1
3. 1.3
4. 76

###

Record set: pIC50 | Lysine-specific demethylase 6B (Homo sapiens, UniProt O15054) | literature, multiple sources.
pIC50: −log10 of the molar value.

CCCCCCN(C)Cc1ccc(-c2[nH]c3c(C#N)cnn3c(=O)c2C(C)C)cc1    < 4.30
O=c1[nH]c(Oc2cnn(Cc3ccccc3)c2)nc2ncccc12    < 4.00
O=C(O)CCNc1nc(N2CCN(c3ccc(Cl)c(Cl)c3)CC2)cc(-n2cc3ccccc3n2)n1    < 4.00
CN(c1ccccc1)c1ccc2c(c1)CCC[C@H]2CNc1cnccc1C(=O)O    < 5.40
NNc1nccc(C(=O)O)n1    < 4.00

For each entry beneath this line, provide reported pIC50.
1. COc1ccc(-n2cc(C(=O)NCC(C)(C)N3CCOCC3)c(-c3ccccc3)n2)cc1
2. CCCCN(C)CCN(CC)C(=O)CNCc1cc(C(=O)O)ccn1

Result:
1. < 6.00
2. < 5.30
